- experimental details: clinical
- study conditions: human, in vivo, clearance, typical population PK parameter (range)
measure: clearance

*Q* What does the record list as clearance for NCCCC[C@H](NC(=O)[C@@H]1CCCN1C(=O)[C@@H]1CSSC[C@H](N)C(=O)N[C@@H](Cc2ccc(O)cc2)C(=O)N[C@@H](Cc2ccccc2)C(=O)N[C@@H](CCC(N)=O)C(=O)N[C@@H](CC(N)=O)C(=O)N1)C(=O)NCC(N)=O [lysine-vasopressin] ?
*A* 4720 to 6050 mL/min

----------
- experimental details: clinical
- study conditions: human, in vivo, terminal half-life
measure: half-life

*Q* Which half-life is listed for `NCCCC[C@H](NC(=O)[C@@H]1CCCN1C(=O)[C@@H]1CSSC[C@H](N)C(=O)N[C@@H](Cc2ccc(O)cc2)C(=O)N[C@@H](Cc2ccccc2)C(=O)N[C@@H](CCC(N)=O)C(=O)N[C@@H](CC(N)=O)C(=O)N1)C(=O)NCC(N)=O` ?
*A* ~3 h

----------
- experimental details: Pharmacokinetic modeling with sparse PK samples from 69 patients with HRS-1
- study conditions: human, in vivo, 1 mg, clearance (derived typical population PK parameter), 1 mg terlipressin acetate
Where a SMILES comes first, the peptide text is derived from it. Bridges are numbered along the chain shown (N, C = ends).
measure: clearance (mL/min)
Reply with just the number (in mL/min).

*Q* I have this compound here, NCCCC[C@H](NC(=O)[C@@H]1CCCN1C(=O)[C@@H]1CSSC[C@H](NC(=O)CNC(=O)CNC(=O)CN)C(=O)N[C@@H](Cc2ccc(O)cc2)C(=O)N[C@@H](Cc2ccccc2)C(=O)N[C@@H](CCC(N)=O)C(=O)N[C@@H](CC(N)=O)C(=O)N1)C(=O)NCC(N)=O [Terlipressin] (H-GGGCYFQNCPKG-NH2; disulfide 4-9 (inferred)) , and I need its recorded clearance.
*A* 457

----------
- experimental details: Pharmacokinetic modeling with sparse PK samples from 69 patients with HRS-1
- study conditions: human, in vivo, clearance, typical population PK parameter (range)
Where a SMILES comes first, the peptide text is derived from it. Bridges are numbered along the chain shown (N, C = ends).
measure: clearance

*Q* Look up clearance for this molecule: NCCCC[C@H](NC(=O)[C@@H]1CCCN1C(=O)[C@@H]1CSSC[C@H](NC(=O)CNC(=O)CNC(=O)CN)C(=O)N[C@@H](Cc2ccc(O)cc2)C(=O)N[C@@H](Cc2ccccc2)C(=O)N[C@@H](CCC(N)=O)C(=O)N[C@@H](CC(N)=O)C(=O)N1)C(=O)NCC(N)=O [Terlipressin] (H-GGGCYFQNCPKG-NH2; disulfide 4-9 (inferred))
*A* 413 to 518 mL/min

----------
- experimental details: Pharmacokinetic modeling with sparse PK samples from 69 patients with HRS-1
- study conditions: human, in vivo, iv, 1 mg, Cmax (range), 1 mg dose of terlipressin acetate IV
Where a SMILES comes first, the peptide text is derived from it. Bridges are numbered along the chain shown (N, C = ends).
measure: Cmax

*Q* # lookup: Cmax of NCCCC[C@H](NC(=O)[C@@H]1CCCN1C(=O)[C@@H]1CSSC[C@H](NC(=O)CNC(=O)CNC(=O)CN)C(=O)N[C@@H](Cc2ccc(O)cc2)C(=O)N[C@@H](Cc2ccccc2)C(=O)N[C@@H](CCC(N)=O)C(=O)N[C@@H](CC(N)=O)C(=O)N1)C(=O)NCC(N)=O [Terlipressin] (H-GGGCYFQNCPKG-NH2; disulfide 4-9 (inferred))
*A* 37.1 to 143 ng/mL
